Biological target: T1, K280-ac protein fragment (human)
T1 construct: also called mAC
T1 peptide: VQIINK(Ac)KLDLSN
Experiment: ELISA on K280-ac coated at 250 ng/well, HRP anti-human IgG
Ends that are not written are not given here.
Documented Absorbance at 450nm at 0.06ug/well across a set of binders
Just the number, please.

INSERT INTO measurements (binder, observed) VALUES
  ('ADEL-Y01h v08 antibody (antibody, V domains shown, Humanized antibody; It was detected with anti-human IgG; also called Y01h01v08) VH: EVTLKESGPTLVKPTQTLTLTCTVSGDSITSGYWNWIRQPPGKALEYLAYIRYSGRTYYNPSLKSRLTITRDTSKNQVVLTMTNMDPVDTATYYCASVYFTYWGQGTLVTVSS VL: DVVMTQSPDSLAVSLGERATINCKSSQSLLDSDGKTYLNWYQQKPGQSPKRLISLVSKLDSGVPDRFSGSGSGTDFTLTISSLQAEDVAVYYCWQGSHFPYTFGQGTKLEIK', 0.0375);

Q: Consider the binder ADEL-Y01h v09 antibody (antibody, V domains shown, Humanized antibody; It was detected with anti-human IgG; also called Y01h01v09) VH: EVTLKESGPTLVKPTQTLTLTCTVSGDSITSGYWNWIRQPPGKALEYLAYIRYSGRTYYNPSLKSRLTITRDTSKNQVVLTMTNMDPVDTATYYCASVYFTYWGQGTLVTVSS VL: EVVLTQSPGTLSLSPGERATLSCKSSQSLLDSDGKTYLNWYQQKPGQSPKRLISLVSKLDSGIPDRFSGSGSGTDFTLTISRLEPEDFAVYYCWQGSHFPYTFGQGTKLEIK and give its measured Absorbance at 450nm at 0.06ug/well.
Ans: 0.75
